B1: TPR 5TU (parent)
chain: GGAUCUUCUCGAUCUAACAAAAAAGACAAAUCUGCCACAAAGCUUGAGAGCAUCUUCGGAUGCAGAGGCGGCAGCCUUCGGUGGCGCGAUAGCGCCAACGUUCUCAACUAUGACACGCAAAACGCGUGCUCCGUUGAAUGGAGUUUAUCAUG

Variants of: B1
Assay Overview: polymerase ribozyme fitness, log enrichment relative to wild type (log ratio); higher = more active; in vitro selection for triplet polymerase activity
Fewer inactive variants are shown than the library holds.
Observable: polymerase ribozyme fitness (log ratio)
Answer with the value's number alone.

Examples with answers:
Variant Description	polymerase ribozyme fitness (log ratio)
U55A C85A G141C	-1.86
C93U A137G C149U	-2.47
U56A U61A	-1.51
G124U	-0.432
A40U G50C C57U U82A	-2.79
A24U G84U	-2.26
C14U G94A G136U	-3.85
U15G U53A	-0.774

query: // returns reported polymerase ribozyme fitness (log ratio) for input G59A A122U
result: 0.148

query: What does the data say about its polymerase ribozyme fitness (log ratio)? Entry: C75U U82C C116A
result: 0.695

query: What measured polymerase ribozyme fitness (log ratio) goes with C54U G71C C116U G136A U146C ?
result: -3.51

Cited source: the RNAGym collection of RNA variant scans (doi:10.1073/pnas.2313332121)
